biological target: Interstitial collagenase (Homo sapiens); experiment: Inhibition of MMP1 at 10 uM
Sequence (P03956 whole entry): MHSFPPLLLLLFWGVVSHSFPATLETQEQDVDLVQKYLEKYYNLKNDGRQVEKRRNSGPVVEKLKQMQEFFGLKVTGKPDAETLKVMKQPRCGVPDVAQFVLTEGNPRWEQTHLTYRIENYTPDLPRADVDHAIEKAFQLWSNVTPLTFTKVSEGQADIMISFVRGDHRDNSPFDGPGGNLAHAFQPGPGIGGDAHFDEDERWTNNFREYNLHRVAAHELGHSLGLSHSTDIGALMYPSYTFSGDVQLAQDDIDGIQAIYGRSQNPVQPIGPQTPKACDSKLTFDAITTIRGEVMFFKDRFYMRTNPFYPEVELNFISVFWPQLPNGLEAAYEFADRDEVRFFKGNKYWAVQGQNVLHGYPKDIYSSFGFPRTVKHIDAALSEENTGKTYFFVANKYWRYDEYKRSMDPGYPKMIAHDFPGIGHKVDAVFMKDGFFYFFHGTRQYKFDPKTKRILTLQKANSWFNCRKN
Quantity kind: inhibition

molecule=CCCCCC#CCOc1ccc(S(=O)(=O)C2(C(=O)NO)CCN(Cc3ccc(Br)cc3)CC2)cc1 assay_result=33%
molecule=CC#CCOc1ccc(SC2(C(=O)OCC)CCN(C(=O)OC(C)(C)C)CC2)cc1 assay_result=26%
molecule=CC#CCOc1ccc(SC2(C(=O)NO)CCN(C(=O)OC(C)(C)C)CC2)cc1 assay_result=24%
molecule=CC#CCOc1ccc(S(=O)(=O)C2(C(=O)NO)CCN(CC)CC2)cc1 assay_result=44%
molecule=CCC#CCOc1ccc(S(=O)(=O)C2(C(=O)NO)CCN(Cc3ccc(Br)cc3)CC2)cc1 assay_result=51%
molecule="CCCCCCC(Sc1ccc(OC)cc1)C(=O)NO (stereo not drawn)" assay_result=9%
molecule=CC#CCOc1ccc(S(=O)(=O)C2(C(=O)NO)CCN(Cc3ccc(Cl)cc3)CC2)cc1 assay_result=52%
molecule=O=C(NO)C1(S(=O)(=O)c2ccc(OCC#CCN3CCOCC3)cc2)CCN(Cc2ccc(Br)cc2)CC1 assay_result=16%
